Tested on: PRP4;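 also: KINOMEscan kinase panel screen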
Conditions: concentration: 1 μM, replicates: in singlicate; n = 1
Label class 1 when %Inh is strictly below 20%; at or above that, label class 0.

[[record]]
molecule = "O=c1[nH]cc(-c2ccc(N3CCOCC3)cc2)c2sc(-c3cn[nH]c3)cc12"
assigned_label = "class 1"

[[record]]
molecule = "COc1ccc(CNC(=O)NC2CCN(c3ccnc(Nc4ccc(F)cc4)n3)CC2)cc1"
assigned_label = "class 0"

[[record]]
molecule = "COc1cc(Nc2nccc(-c3c(-c4cccc(NC(=O)c5c(F)cccc5F)c4)nn4ncccc34)n2)cc(OC)c1OC"
assigned_label = "class 1"

[[record]]
molecule = "Nc1ncnc2c1nc(-c1ccccc1)n2-c1ccccc1"
assigned_label = "class 1"

[[record]]
molecule = "COc1ccc(Nc2nccc(NCCNC(=O)c3cc4ccccc4s3)n2)cc1"
assigned_label = "class 1"

[[record]]
molecule = "O=C(NC1CCN(c2ccnc(Nc3ccc(F)cc3)n2)C1)c1cc2ccccc2s1 (stereo not shown)"
assigned_label = "class 0"

[[record]]
molecule = "Cc1ccc(C(=O)Nc2ccc(Nc3ccnc4cc(-c5nccs5)ccc34)cc2O)cc1.Cl"
assigned_label = "class 0"

[[record]]
molecule = "Cn1cc(-c2[nH]c3cc(NC(=O)[C@H](N)C4CCCCC4)cc4c3c2C=NNC4=O)cn1"
assigned_label = "class 0"

[[record]]
molecule = "Cc1occc1-c1ncc(OC[C@@H](N)Cc2c[nH]c3ccccc23)cc1-c1ccc2[nH]nc(C)c2c1.O=C(O)C(F)(F)F"
assigned_label = "class 1"

[[record]]
molecule = "COC(=O)Nc1nc2ccc(Oc3ccc(NC(=O)Nc4cc(C(F)(F)F)ccc4F)cc3)cc2n1C.Cl"
assigned_label = "class 0"

[[record]]
molecule = "COc1cc(Nc2nccc(N3CCC(NC(=O)Nc4cccc(C(C)=O)c4)C3)n2)cc(OC)c1OC (stereo not shown)"
assigned_label = "class 1"

[[record]]
molecule = "Cc1cccc(Nc2nc(N[C@H]3CCNC3)ncc2C(N)=O)c1.Cl"
assigned_label = "class 0"

[[record]]
molecule = "Cc1ccc(C)c(NC(=O)NC2CCN(c3ccnc(Nc4ccc(F)cc4)n3)C2)c1 (stereo not shown)"
assigned_label = "class 0"

[[record]]
molecule = "CC(=O)N1CCN(c2ccc(Nc3nccc(-c4sc(C(C)C)nc4-c4cccc(NS(=O)(=O)c5cccc(Cl)c5)c4)n3)cn2)CC1"
assigned_label = "class 1"

[[record]]
molecule = "COc1cccc(C2=C(Nc3ccc(Cl)c(C(=O)O)c3)C(=O)NC2=O)c1"
assigned_label = "class 0"

[[record]]
molecule = "CC(C)(C)c1ccc2nccc(Nc3cccc(O)c3)c2c1"
assigned_label = "class 0"

[[record]]
molecule = "COc1cc2c(cc1OCCN1CCNCC1)ncc1c3ccc(C#N)cc3[nH]c21"
assigned_label = "class 0"

[[record]]
molecule = "Cl.c1ccc(-c2ccc3c(Nc4ccc5[nH]ncc5c4)ccnc3c2)nc1"
assigned_label = "class 0"

[[record]]
molecule = "Cl.Cl.NCC(C(=O)Nc1cc(Br)c(-c2ccnc3[nH]ccc23)s1)c1ccccc1 (stereo not shown)"
assigned_label = "class 0"

[[record]]
molecule = "COc1cc(Nc2ncc3c(C)nc(-c4cc5ccccc5[nH]4)n3n2)cc(OC)c1OC"
assigned_label = "class 1"

[[record]]
molecule = "CCc1ccc(-c2ccc3c(c2)-c2c(cnn2C)S(=O)(=O)N3C)cc1"
assigned_label = "class 1"

[[record]]
molecule = "Cn1cc(-c2ccc3c(c2)CCN3C(=O)Cc2cccc(Cl)c2)c2c(N)ncnc21"
assigned_label = "class 1"

